Procedure details: Metabolic stability in mouse liver microsomes assessed as half life
Format: ADME, Microsome
Reported metric: half-life (min)

Structure string	Result number
C[C@H](c1cccc(-c2ncc(OCC3CCN(C)CC3)cn2)c1)n1cc(-c2cc(C#N)ccn2)cc(F)c1=O	49.1

---

Target: Hepatocyte growth factor receptor (Homo sapiens)
Sequence (P08581 whole entry): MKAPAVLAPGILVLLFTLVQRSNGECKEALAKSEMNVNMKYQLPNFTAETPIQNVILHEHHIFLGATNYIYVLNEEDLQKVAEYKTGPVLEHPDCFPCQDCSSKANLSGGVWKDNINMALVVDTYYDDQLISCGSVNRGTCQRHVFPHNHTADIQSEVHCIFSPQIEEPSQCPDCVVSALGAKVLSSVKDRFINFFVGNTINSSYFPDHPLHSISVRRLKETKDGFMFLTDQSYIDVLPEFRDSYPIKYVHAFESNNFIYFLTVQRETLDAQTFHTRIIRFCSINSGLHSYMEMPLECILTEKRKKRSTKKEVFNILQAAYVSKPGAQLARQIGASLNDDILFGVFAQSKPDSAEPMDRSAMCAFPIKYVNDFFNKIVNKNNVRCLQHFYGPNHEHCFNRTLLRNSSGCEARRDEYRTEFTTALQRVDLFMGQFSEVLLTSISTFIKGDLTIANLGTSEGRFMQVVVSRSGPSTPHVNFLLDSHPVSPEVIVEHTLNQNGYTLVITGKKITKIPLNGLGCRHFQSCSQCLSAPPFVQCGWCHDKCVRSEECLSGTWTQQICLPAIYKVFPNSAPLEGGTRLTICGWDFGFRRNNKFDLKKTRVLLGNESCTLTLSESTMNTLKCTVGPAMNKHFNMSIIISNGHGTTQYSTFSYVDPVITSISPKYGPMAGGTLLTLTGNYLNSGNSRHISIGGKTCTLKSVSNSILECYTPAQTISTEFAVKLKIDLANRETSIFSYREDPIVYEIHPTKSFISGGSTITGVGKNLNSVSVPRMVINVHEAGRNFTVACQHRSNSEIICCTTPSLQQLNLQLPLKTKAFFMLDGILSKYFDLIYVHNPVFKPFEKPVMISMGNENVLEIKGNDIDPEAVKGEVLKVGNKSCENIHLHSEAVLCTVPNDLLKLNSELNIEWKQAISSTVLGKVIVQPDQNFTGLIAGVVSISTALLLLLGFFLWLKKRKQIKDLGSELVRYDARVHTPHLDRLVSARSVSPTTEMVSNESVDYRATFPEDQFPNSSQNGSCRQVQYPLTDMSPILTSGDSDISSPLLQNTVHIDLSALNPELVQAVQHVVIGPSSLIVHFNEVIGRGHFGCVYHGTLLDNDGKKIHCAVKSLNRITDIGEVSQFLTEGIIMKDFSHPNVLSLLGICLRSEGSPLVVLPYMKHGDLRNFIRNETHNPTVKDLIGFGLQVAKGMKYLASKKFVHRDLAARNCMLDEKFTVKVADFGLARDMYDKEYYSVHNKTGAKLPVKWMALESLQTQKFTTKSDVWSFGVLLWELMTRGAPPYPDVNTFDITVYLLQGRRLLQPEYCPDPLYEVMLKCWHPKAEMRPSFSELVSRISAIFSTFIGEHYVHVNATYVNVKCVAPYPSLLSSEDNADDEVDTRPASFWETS
Procedure details: Inhibition of human GST tagged c-Met CD expressed in Sf9 cells using poly(Glu:Tyr) as substrate incubated for 5 mins in presence of ATP by horseradish peroxidase based ELISA method
Reported metric: IC50 (µM)

Structure string	Readout unit	Result number
Cc1[nH]c(/C=C2\C(=O)Nc3ccc(S(=O)(=O)N(C)c4cccc(Cl)c4)cc32)c(C)c1C(=O)N1CCN(C)CC1	µM	0.01
